Form field: pKi (one value per entry).
target: 6TM/E11 (Mus musculus); assay: Competition binding versus 125I-IBNtxA at the 6TM-containing
Sequence (P42866 99-386 limits assumed): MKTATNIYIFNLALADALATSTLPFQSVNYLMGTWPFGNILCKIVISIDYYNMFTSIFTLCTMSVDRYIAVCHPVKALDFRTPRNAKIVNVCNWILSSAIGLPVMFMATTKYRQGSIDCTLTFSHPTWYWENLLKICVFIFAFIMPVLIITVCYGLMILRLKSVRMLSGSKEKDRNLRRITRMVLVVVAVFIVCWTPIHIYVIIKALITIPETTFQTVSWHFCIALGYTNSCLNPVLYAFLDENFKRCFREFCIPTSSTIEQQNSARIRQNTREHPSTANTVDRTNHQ
Non-standard residues stand in square brackets, D forms with d. Residues, ends and D or L forms follow the SMILES beside them. Tic = O=C(O)[C@@H]1Cc2ccccc2CN1; βAla = NCCC(=O)O
Bear in mind: pKi is minus log10 of a mol/L concentration; give just that figure.

// below: answered compounds
compound: N[C@@H](Cc1ccc(O)cc1)C(=O)N1Cc2ccccc2C[C@H]1C(=O)N[C@@H](Cc1ccccc1)C(=O)N[C@@H](Cc1ccccc1)C(=O)O [TIPP, Tyr-Tic-Phe-Phe-OH] (H-Y[Tic]FF-OH)
readout.type: pKi
measured.value: 6.79

compound: CC[C@H](C)[C@H](NC(=O)[C@H](Cc1ccccc1)NC(=O)[C@H](Cc1ccccc1)NC(=O)[C@@H](C)NC(=O)[C@@H](N)Cc1ccc(O)cc1)C(N)=O [TAPPI, Tyr-D-Ala-Phe-Phe-Ile-NH2] (H-Y[dA]FFI-NH2)
readout.type: pKi
measured.value: 7.00

Now look at this entry.
Requested field: pKi. Item: C[C@@H](NC(=O)[C@@H](N)Cc1ccc(O)cc1)C(=O)N[C@@H](Cc1ccccc1)C(=O)NCCC(N)=O [TAPA, Tyr-D-Ala-Phe-βAla-NH2] (H-Y[dA]F[βAla]-NH2)
7.40

###

Form field: Ki (one value per entry).
molecular target: 125I-IDAPP binding sites in C57/Bl6 brain homogenates (Mus musculus, UniProt P42866); conditions: 0.1 nM 125I-IDAPP, C57/Bl6 brain homogenates, no blockers
Sequence (P42866 whole entry): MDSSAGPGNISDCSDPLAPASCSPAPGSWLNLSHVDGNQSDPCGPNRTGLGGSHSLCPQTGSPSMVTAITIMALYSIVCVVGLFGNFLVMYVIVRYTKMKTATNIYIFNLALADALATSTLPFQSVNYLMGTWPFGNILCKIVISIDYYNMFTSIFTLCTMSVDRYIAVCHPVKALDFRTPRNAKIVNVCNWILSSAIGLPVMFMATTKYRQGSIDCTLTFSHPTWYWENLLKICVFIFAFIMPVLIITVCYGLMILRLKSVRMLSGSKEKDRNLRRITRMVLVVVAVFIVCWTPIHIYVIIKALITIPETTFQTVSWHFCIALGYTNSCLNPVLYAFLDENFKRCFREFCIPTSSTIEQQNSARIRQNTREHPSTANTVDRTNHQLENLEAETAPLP

smiles.entry: Oc1ccc2c3c1O[C@H]1c4[nH]c5ccccc5c4C[C@@]4(O)[C@@H](C2)N(CC2CC2)CC[C@]314
readout.type: Ki
measured.value: > 1 µM

Requested field: Ki. Item: `Oc1ccc2c3c1O[C@H]1c4[nH]c5c(c4C[C@@]4(O)[C@@H](C2)N(CC2CC2)CC[C@]314)C[C@@]1(O)[C@H]2Cc3ccc(O)c4c3[C@@]1(CCN2CC1CC1)[C@H]5O4`
> 1 µM
